- target under test: Gal-1 (Homo sapiens, UniProt P09382)
- Construct: made in house; host or cells: E. coli BL21(DE3)
- Sequence (P09382 whole entry): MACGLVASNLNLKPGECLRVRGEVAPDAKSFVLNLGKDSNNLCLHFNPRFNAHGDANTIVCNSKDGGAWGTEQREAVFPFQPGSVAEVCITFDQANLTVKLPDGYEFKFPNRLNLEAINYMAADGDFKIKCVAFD
- protocol: Pull-down assay with immobilized protein and LSM libraries
- Type: binding
- measurement conditions: H14 library; 1:1 binding assumed; read-out: Surface mapping KD (apparent)
recorded endpoint: pKd
Scale note: pKd = -log10(concentration in M).

- mol: "CC[C@H](C)[C@@H](CC(=O)N[C@H]1CCCC[C@@H]1C(=O)N[C@H]1CCCC[C@@H]1C(=O)N[C@H](CC(=O)N[C@H]1CCCC[C@@H]1C(N)=O)Cc1c[nH]c2ccccc12)NC(=O)[C@H]1CCCC[C@@H]1N"
  observed: 4.42
- mol: "CSCC[C@@H](CC(=O)N[C@H]1CCCC[C@@H]1C(N)=O)NC(=O)[C@H]1CCCC[C@@H]1NC(=O)[C@H]1CCCC[C@@H]1NC(=O)C[C@H](Cc1ccc(O)cc1)NC(=O)[C@H]1CCCC[C@@H]1N"
  observed: 4.01
- mol: "CC[C@H](C)[C@@H](CC(=O)N[C@H]1CCCC[C@@H]1C(N)=O)NC(=O)[C@H]1CCCC[C@@H]1NC(=O)[C@H]1CCCC[C@@H]1NC(=O)C[C@H](CC(C)C)NC(=O)[C@H]1CCCC[C@@H]1N"
  observed: 4.62
- mol: "CC(C)[C@@H](CC(=O)N[C@H]1CCCC[C@@H]1C(N)=O)NC(=O)[C@H]1CCCC[C@@H]1NC(=O)[C@H]1CCCC[C@@H]1NC(=O)C[C@H](Cc1c[nH]c2ccccc12)NC(=O)[C@H]1CCCC[C@@H]1N"
  observed: 3.84
- mol: "CC(C)[C@@H](CC(=O)N[C@H]1CCCC[C@@H]1C(=O)N[C@H]1CCCC[C@@H]1C(=O)N[C@@H](CCCCN)CC(=O)N[C@H]1CCCC[C@@H]1C(N)=O)NC(=O)[C@H]1CCCC[C@@H]1N"
  observed: 3.53
- mol: "NC(=O)[C@H]1CCCC[C@@H]1NC(=O)C[C@H](Cc1ccccc1)NC(=O)[C@H]1CCCC[C@@H]1NC(=O)[C@H]1CCCC[C@@H]1NC(=O)C[C@H](CO)NC(=O)[C@H]1CCCC[C@@H]1N"
  observed: 3.57

// Input: CSCC[C@@H](CC(=O)N[C@H]1CCCC[C@@H]1C(=O)N[C@H]1CCCC[C@@H]1C(=O)N[C@H](CC(=O)N[C@H]1CCCC[C@@H]1C(N)=O)Cc1ccccc1)NC(=O)[C@H]1CCCC[C@@H]1N . Output its pKd only.
3.65

// Input: NC(=O)CC[C@@H](CC(=O)N[C@H]1CCCC[C@@H]1C(=O)N[C@H]1CCCC[C@@H]1C(=O)N[C@H](CC(=O)N[C@H]1CCCC[C@@H]1C(N)=O)Cc1c[nH]c2ccccc12)NC(=O)[C@H]1CCCC[C@@H]1N . Output its pKd only.
3.77

// Input: CC(C)[C@@H](CC(=O)N[C@H]1CCCC[C@@H]1C(=O)N[C@H]1CCCC[C@@H]1C(=O)N[C@@H](CCCNC(=N)N)CC(=O)N[C@H]1CCCC[C@@H]1C(N)=O)NC(=O)[C@H]1CCCC[C@@H]1N . Output its pKd only.
3.54

// Input: NC(=O)C[C@@H](CC(=O)N[C@H]1CCCC[C@@H]1C(=O)N[C@H]1CCCC[C@@H]1C(=O)N[C@H](CC(=O)N[C@H]1CCCC[C@@H]1C(N)=O)Cc1c[nH]c2ccccc12)NC(=O)[C@H]1CCCC[C@@H]1N . Output its pKd only.
3.77

// Input: CC[C@H](C)[C@@H](CC(=O)N[C@H]1CCCC[C@@H]1C(N)=O)NC(=O)[C@H]1CCCC[C@@H]1NC(=O)[C@H]1CCCC[C@@H]1NC(=O)C[C@H](Cc1ccccc1)NC(=O)[C@H]1CCCC[C@@H]1N . Output its pKd only.
3.99

// Input: C[C@@H](O)[C@@H](CC(=O)N[C@H]1CCCC[C@@H]1C(=O)N[C@H]1CCCC[C@@H]1C(=O)N[C@H](CC(=O)N[C@H]1CCCC[C@@H]1C(N)=O)Cc1c[nH]c2ccccc12)NC(=O)[C@H]1CCCC[C@@H]1N . Output its pKd only.
3.84

// Input: CSCC[C@@H](CC(=O)N[C@H]1CCCC[C@@H]1C(N)=O)NC(=O)[C@H]1CCCC[C@@H]1NC(=O)[C@H]1CCCC[C@@H]1NC(=O)C[C@H](C)NC(=O)[C@H]1CCCC[C@@H]1N . Output its pKd only.
3.51

// Input: NCCCC[C@@H](CC(=O)N[C@H]1CCCC[C@@H]1C(N)=O)NC(=O)[C@H]1CCCC[C@@H]1NC(=O)[C@H]1CCCC[C@@H]1NC(=O)C[C@H](CCC(N)=O)NC(=O)[C@H]1CCCC[C@@H]1N . Output its pKd only.
3.80

// Input: CSCC[C@@H](CC(=O)N[C@H]1CCCC[C@@H]1C(=O)N[C@H]1CCCC[C@@H]1C(=O)N[C@@H](C)CC(=O)N[C@H]1CCCC[C@@H]1C(N)=O)NC(=O)[C@H]1CCCC[C@@H]1N . Output its pKd only.
3.41

// Input: CC[C@H](C)[C@@H](CC(=O)N[C@H]1CCCC[C@@H]1C(=O)N[C@H]1CCCC[C@@H]1C(=O)N[C@H](CC(=O)N[C@H]1CCCC[C@@H]1C(N)=O)CC(C)C)NC(=O)[C@H]1CCCC[C@@H]1N . Output its pKd only.
4.62

// Input: NC(=O)CC[C@@H](CC(=O)N[C@H]1CCCC[C@@H]1C(=O)N[C@H]1CCCC[C@@H]1C(=O)N[C@@H](CO)CC(=O)N[C@H]1CCCC[C@@H]1C(N)=O)NC(=O)[C@H]1CCCC[C@@H]1N . Output its pKd only.
3.46

// Input: NC(=O)[C@H]1CCCC[C@@H]1NC(=O)C[C@H](Cc1c[nH]c2ccccc12)NC(=O)[C@H]1CCCC[C@@H]1NC(=O)[C@H]1CCCC[C@@H]1NC(=O)C[C@H](Cc1ccc(O)cc1)NC(=O)[C@H]1CCCC[C@@H]1N . Output its pKd only.
3.94
